Provenance of the data: patent US7445765B2

Listed below: Biodistribution in rats: Kidneys values for each entry.
METHOD_SUMMARY: Biodistribution of the 99mTc(N) heterocomplexes in rats (organ uptake, heart accumulation, heart/lung and heart/liver ratios)
Format: in vivo, female Sprague-Dawley rats
ASSAY_CONTEXT: 30 min post injection
Experimental: The biodistribution was measured by using female Sprague-Dawley rats (SD rats) weighing 200 g to 250 g. Each of the ^99mTc(N) heterocomplexes purified in the manner described above was diluted with phosphate buffer (0.1 M, pH=7.4) to obtain a final solution having an ethanol content of 10%. […] The blood was withdrawn from the heart through a syringe and counted. […] The organs were excised from the rats, washed with physiological saline, weighed, and counted in a NaI well counter. […]
Unit % ID/g implied. Number only.

>>> observed_measurement("CCOCCN(CCOCC)C1=[S][99Tc+]2(#[N])([S]1)[P](CCCOC)(CCCOC)CCN(CCOC)CC[P]2(CCCOC)CCCOC [[^99mTc(N) (PNP3) (DBODC)]^+]")
5.67

*Q* # lookup: Biodistribution in rats: Kidneys of COCCC[P]1(CCCOC)CCN(CCOC)CC[P](CCCOC)(CCCOC)[99Tc+]12(#[N])[S]C(N(CCOC)CCOC)=[S]2 [[^99mTc(N) (PNP3) (DPODC)]^+]
*A* 4.88

###

Listed below: Heart accumulation values for each entry.
METHOD_SUMMARY: Biodistribution of the 99mTc(N) heterocomplexes in rats (organ uptake, heart accumulation, heart/lung and heart/liver ratios)
Assay type: in vivo, female Sprague-Dawley rats
ASSAY_CONTEXT: rats, 60 min

>>> observed_measurement("COCCC[P]1(CCCOC)CCN(CCOC)CC[P](CCCOC)(CCCOC)[99Tc+]12(#[N])[S]C(N(CCOC)CCOC)=[S]2 [[^99m−Tc(N) (PNP3) (DPODC)^+]]")
"2.26 ± 0.06 % ID/g"
>>> observed_measurement("CCOCCN1CC[P](CCCOC)(CCCOC)[99Tc+]2(#[N])([S]C(N(CCOCC)CCOCC)=[S]2)[P](CCCOC)(CCCOC)CC1 [[^99m−Tc(N) (PNP5) (DBODC)^+]]")
"3.76 ± 0.39 % ID/g"

*Q* # lookup: Heart accumulation of CCOCCN1CC[P](CCCOC)(CCCOC)[99Tc+]2(#[N])([S]C(N(CCOCC)C(C)C)=[S]2)[P](CCCOC)(CCCOC)CC1 [[^99m−Tc(N) (PNP5) (ISOET)^+]]
*A* 2.74 ± 0.19 % ID/g

*Q* # lookup: Heart accumulation of CCOCCC[P]1(CCCOCC)CCN(CCOCC)CC[P](CCCOCC)(CCCOCC)[99Tc+]12(#[N])[S]C(N(CCOCC)CCOCC)=[S]2 [[^99m−Tc(N) (PNP6) (DBODC)^+]]
*A* 1.10 ± 0.11 % ID/g

*Q* # lookup: Heart accumulation of CCOCCN(CCOCC)C1=[S][99Tc+]2(#[N])([S]1)[P](CCCOC)(CCCOC)CCN(CCOC)CC[P]2(CCCOC)CCCOC [[^99m−Tc(N) (PNP3) (DBODC)^+]]
*A* 3.27 ± 0.62 % ID/g

###

Listed below: Heart accumulation values for each entry.
METHOD_SUMMARY: Biodistribution of the 99mTc(N) heterocomplexes in rats (organ uptake, heart accumulation, heart/lung and heart/liver ratios)
Assay type: in vivo, female Sprague-Dawley rats
ASSAY_CONTEXT: rats, 20 min
Unit % ID/g implied. Number only.

>>> observed_measurement("COCCC[P]1(CCCOC)CCN(CCOC)CC[P](CCCOC)(CCCOC)[99Tc+]12(#[N])[S]C(N(CCOC)CCOC)=[S]2 [[^99m−Tc(N) (PNP3) (DPODC)^+]]")
2.49

*Q* # lookup: Heart accumulation of CCOCCN1CC[P](CCCOC)(CCCOC)[99Tc+]2(#[N])([S]C(N(CCOCC)CCOCC)=[S]2)[P](CCCOC)(CCCOC)CC1 [[^99m−Tc(N) (PNP5) (DBODC)^+]]
*A* 3.63

*Q* # lookup: Heart accumulation of CCOCCN1CC[P](CCCOC)(CCCOC)[99Tc+]2(#[N])([S]C(N(CCOCC)C(C)C)=[S]2)[P](CCCOC)(CCCOC)CC1 [[^99m−Tc(N) (PNP5) (ISOET)^+]]
*A* 2.86
